Substrate: c1ccc([C@@H]2CO2)cc1
Experiment: purified protein
Type: biochemical, Phanerodontia chrysosporium
Settings: 10-80 mM SO, 37 °C, buffer pH 8.0
Reported values of kcat for individual entries

# Protein, Value unit, kcat
measured = [
    ("PchEHA (epoxide hydrolase) (Phanerodontia chrysosporium; C108S/G14A/K291R) (protein, catalytic triad D105/H308/D277) MDASLFKDFKTSRAFNYHYFYSPAKGPRPTLFFLHGNPSVATDWAQIVPHFTSRGYGVLAPDMLGYGDTDKPTDPALYVSSGMCRNLVDLLDHEGLEKVIAIGHDWGSLSVSRLASYYPERVIAYAFLAASFIGPIPPIPFDAFLEYIKQQVGYELYGYWKFYSEPGLDQFVRDHLDTFLSILWPSDPAVWKTRLAPTGALKQSALEGWTAPLAPYITEEFKKHHVEVFNKNGFEAPACYYRIMTSGLQAEDDKQILPERAVPPKDAPVFFGAANKDYICIPALAYATFKRDEWKDHKITIKEYDADHWLILSHADQVSRDLEAWIEGFASGGQ", "s⁻¹", 3020),
    ("PchEHA (epoxide hydrolase) (Phanerodontia chrysosporium; A24T/E251G) (protein, catalytic triad D105/H308/D277) MDASLFKDFKTSRGFNYHYFYSPTKGPRPTLFFLHGNPSVATDWAQIVPHFTSRGYGVLAPDMLGYGDTDKPTDPALYVSSGMCRNLVDLLDHEGLEKVIAIGHDWGCLSVSRLASYYPERVIAYAFLAASFIGPIPPIPFDAFLEYIKQQVGYELYGYWKFYSEPGLDQFVRDHLDTFLSILWPSDPAVWKTRLAPTGALKQSALEGWTAPLAPYITEEFKKHHVEVFNKNGFEAPACYYRIMTSGLQAGDDKQILPERAVPPKDAPVFFGAANKDYICIPALAYATFKKDEWKDHKITIKEYDADHWLILSHADQVSRDLEAWIEGFASGGQ", "s⁻¹", 1660),
    ("PchEHA (epoxide hydrolase) (Phanerodontia chrysosporium; E251G/G14A/K291R) (protein, catalytic triad D105/H308/D277) MDASLFKDFKTSRAFNYHYFYSPAKGPRPTLFFLHGNPSVATDWAQIVPHFTSRGYGVLAPDMLGYGDTDKPTDPALYVSSGMCRNLVDLLDHEGLEKVIAIGHDWGCLSVSRLASYYPERVIAYAFLAASFIGPIPPIPFDAFLEYIKQQVGYELYGYWKFYSEPGLDQFVRDHLDTFLSILWPSDPAVWKTRLAPTGALKQSALEGWTAPLAPYITEEFKKHHVEVFNKNGFEAPACYYRIMTSGLQAGDDKQILPERAVPPKDAPVFFGAANKDYICIPALAYATFKRDEWKDHKITIKEYDADHWLILSHADQVSRDLEAWIEGFASGGQ", "s⁻¹", 2250),
    ("PchEHA (epoxide hydrolase) (Phanerodontia chrysosporium) (protein, catalytic triad D105/H308/D277) MDASLFKDFKTSRGFNYHYFYSPAKGPRPTLFFLHGNPSVATDWAQIVPHFTSRGYGVLAPDMLGYGDTDKPTDPALYVSSGMCRNLVDLLDHEGLEKVIAIGHDWGCLSVSRLASYYPERVIAYAFLAASFIGPIPPIPFDAFLEYIKQQVGYELYGYWKFYSEPGLDQFVRDHLDTFLSILWPSDPAVWKTRLAPTGALKQSALEGWTAPLAPYITEEFKKHHVEVFNKNGFEAPACYYRIMTSGLQAEDDKQILPERAVPPKDAPVFFGAANKDYICIPALAYATFKKDEWKDHKITIKEYDADHWLILSHADQVSRDLEAWIEGFASGGQ", "s⁻¹", 1740),
]
